tested on: S. enterica typhimurium WT; test: growth AUC normalised to DMSO control (median) (fraction of control); higher = less growth inhibition, active = hit call of the paper; conditions: 20 µM;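 also: active when median AUC fell below 0.1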
Counter-ions that a name gives are not always drawn.
REPORTED_ENDPOINT: growth AUC normalised to DMSO control
The answer should be written as a number, with no unit following it.

| COMPOUND | growth AUC normalised to DMSO control |
| --- | --- |
| O=C(C1CCCCC1)N1CC(=O)N2CCc3ccccc3C2C1 (centres undefined) | 1.01 |

Recall and state the measured growth AUC normalised to DMSO control for N=C(N)NC(=N)NCCc1ccccc1 [Phenformin hydrochloride] .
0.994

Recall and state the measured growth AUC normalised to DMSO control for CCC1(c2ccccc2)C(=O)NCNC1=O .
1

Recall and state the measured growth AUC normalised to DMSO control for O=C1C(=O)c2ccccc2C(O)=C1C1CCC(c2ccc(Cl)cc2)CC1 (centres undefined) .
0.992

Recall and state the measured growth AUC normalised to DMSO control for Cc1nc2n(c(=O)c1CCN1CCC(c3noc4cc(F)ccc34)CC1)CCCC2 .
0.997

Recall and state the measured growth AUC normalised to DMSO control for CCCCc1ncc(/C=C(\Cc2cccs2)C(=O)O)n1Cc1ccc(C(=O)O)cc1 [Eprosartan mesylate] .
1.01

Recall and state the measured growth AUC normalised to DMSO control for O=C(O)Cc1cc(I)c(Oc2ccc(O)c(I)c2)c(I)c1 .
1.01

Recall and state the measured growth AUC normalised to DMSO control for CCOC(=O)O[C@]1(C(=O)OCCl)CC[C@H]2[C@@H]3CCC4=CC(=O)C=C[C@]4(C)[C@H]3[C@@H](O)C[C@@]21C [Loteprednol etabonate] .
1.01

Recall and state the measured growth AUC normalised to DMSO control for CN(C)CCc1c[nH]c2ccc(C[C@H]3COC(=O)N3)cc12 .
1
